Molecular target: Nuclear receptor ROR-gamma (Homo sapiens)
Sequence (P51449 whole entry): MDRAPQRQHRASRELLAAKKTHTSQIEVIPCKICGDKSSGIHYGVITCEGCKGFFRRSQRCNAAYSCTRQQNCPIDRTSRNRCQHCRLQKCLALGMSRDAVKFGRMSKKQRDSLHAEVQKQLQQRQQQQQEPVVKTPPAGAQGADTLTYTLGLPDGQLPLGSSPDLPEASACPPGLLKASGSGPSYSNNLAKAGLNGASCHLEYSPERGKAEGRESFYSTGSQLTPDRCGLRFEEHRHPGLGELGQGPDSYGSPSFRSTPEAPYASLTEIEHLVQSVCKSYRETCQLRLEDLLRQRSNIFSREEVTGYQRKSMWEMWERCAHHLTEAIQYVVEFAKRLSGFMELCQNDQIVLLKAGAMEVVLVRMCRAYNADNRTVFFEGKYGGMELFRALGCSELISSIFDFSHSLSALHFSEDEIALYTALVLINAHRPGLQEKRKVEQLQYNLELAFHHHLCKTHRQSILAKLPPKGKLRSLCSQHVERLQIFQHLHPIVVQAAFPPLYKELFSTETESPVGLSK
Assay: Displacement of RIP140 cofactor peptide from human His6-tagged RORgammat LBD (264 to 518 residues) by TR-FRET assay
measured.attribute: IC50 (nM)
Record the value in nM, omitting the unit from your answer.

INPUT: Requested read-out IC50, target or system Nuclear receptor ROR-gamma (Homo sapiens), entry Cc1c(C2(C(F)(F)F)CC2)nc(C2CC2)n1-c1c(Cl)ccc(N2CC3(CC(C(=O)O)C3)C2)c1Cl (single isomer, unassigned; atropisomer)
OUTPUT: 5

----------
Biological target: Retinoic acid receptor RXR-alpha (Homo sapiens, UniProt P19793)
Sequence (P19793 whole entry, the tested form may be a part): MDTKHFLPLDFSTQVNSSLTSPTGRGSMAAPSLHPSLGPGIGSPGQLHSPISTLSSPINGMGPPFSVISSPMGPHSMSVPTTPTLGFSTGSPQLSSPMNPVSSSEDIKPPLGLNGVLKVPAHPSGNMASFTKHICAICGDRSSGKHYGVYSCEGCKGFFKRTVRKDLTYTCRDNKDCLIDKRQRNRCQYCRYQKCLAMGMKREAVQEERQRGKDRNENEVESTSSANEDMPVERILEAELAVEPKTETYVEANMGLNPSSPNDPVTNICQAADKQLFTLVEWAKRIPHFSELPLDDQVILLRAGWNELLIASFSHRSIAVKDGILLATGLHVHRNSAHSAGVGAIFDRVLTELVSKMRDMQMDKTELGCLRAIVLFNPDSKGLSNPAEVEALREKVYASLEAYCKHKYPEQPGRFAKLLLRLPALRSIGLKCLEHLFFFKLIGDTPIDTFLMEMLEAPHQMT
Test: Inhibition of Gal4-tagged RXRalpha LBD (unknown origin) by cell based luciferase reporter gene assay
pIC50: −log10 of the molar value.
measured.attribute: pIC50

INPUT: Dear colleague, I am looking for the recorded pIC50 of the following compound: Cc1c(C2(C(F)(F)F)CC2)nc(C2CC2)n1-c1c(Cl)ccc(N2CC3(CC(C(=O)O)C3)C2)c1Cl (single isomer, unassigned; atropisomer)
OUTPUT: < 5.00

----------
Test: Inhibition of RORgammat in rat CD4+ T-cells polarized with Th17 cytokine mix assessed as inhibition of IL-17 secretion
measured.attribute: IC50

Previously resolved entries follow.
INSERT INTO assay_data (compound, measured_attribute, assay_result) VALUES
  ('Cc1c(C2(C(F)(F)F)CC2)nc(-c2ccc(Cl)o2)n1-c1c(Cl)ccc(NCC(C)(C)C(=O)O)c1Cl (single isomer, unassigned; atropisomer)', 'IC50', '306 nM'),
  ('Cc1c(Cc2ccccc2)nc(-c2ccco2)n1-c1c(Cl)cccc1Cl', 'IC50', '56 nM'),
  ('Cc1c(C2(C(F)(F)F)CC2)nc(C2CC2)n1-c1c(Cl)ccc(N2CC3(CC(C(=O)O)C3)C2)c1Cl (single isomer, unassigned; atropisomer)', 'IC50', '387 nM'),
  ('Cc1c(C(F)(F)F)nc(-c2ccc(Cl)o2)n1-c1c(Cl)ccc(N2CC(C(=O)O)C2)c1Cl (single isomer, unassigned; atropisomer)', 'IC50', '1690 nM'),
  ('Cc1c(CC(C)C)nc(-c2ccco2)n1-c1c(Cl)cccc1Cl', 'IC50', '325 nM');

INPUT: Dear colleague, I am looking for the recorded IC50 of the following compound: Cc1c(C(F)(F)F)nc(-c2ccc(Cl)o2)n1-c1c(Cl)ccc(N2CC(CC(=O)O)C2)c1Cl
OUTPUT: 869 nM

----------
The reader will find reported solubility thermodynamic values listed item by item below.
Test: Equilibrium aqueous solubility of the compound in pH 6.8 solution
Format: physicochemical
Conditions: aqueous pH 6.8 solution
Record the value in µM, omitting the unit from your answer.

INSERT INTO measurements (molecule, units_symbol, assay_result) VALUES
  ('CC(C)Cc1cn(-c2c(C#N)cccc2C#N)c(-c2cnco2)n1', 'µM', 350);

# context switch: different molecule, same solubility thermodynamic
INPUT: Dear colleague, I am looking for the recorded solubility thermodynamic of the following molecule: Cc1c(C(F)(F)F)nc(-c2ccc(Cl)o2)n1-c1c(Cl)ccc(N2CC(C(N)=O)C2)c1Cl (single isomer, unassigned; atropisomer)
OUTPUT: 40

----------
Molecular target: Vitamin D3 receptor (Homo sapiens, UniProt P11473)
Sequence (P11473 whole entry): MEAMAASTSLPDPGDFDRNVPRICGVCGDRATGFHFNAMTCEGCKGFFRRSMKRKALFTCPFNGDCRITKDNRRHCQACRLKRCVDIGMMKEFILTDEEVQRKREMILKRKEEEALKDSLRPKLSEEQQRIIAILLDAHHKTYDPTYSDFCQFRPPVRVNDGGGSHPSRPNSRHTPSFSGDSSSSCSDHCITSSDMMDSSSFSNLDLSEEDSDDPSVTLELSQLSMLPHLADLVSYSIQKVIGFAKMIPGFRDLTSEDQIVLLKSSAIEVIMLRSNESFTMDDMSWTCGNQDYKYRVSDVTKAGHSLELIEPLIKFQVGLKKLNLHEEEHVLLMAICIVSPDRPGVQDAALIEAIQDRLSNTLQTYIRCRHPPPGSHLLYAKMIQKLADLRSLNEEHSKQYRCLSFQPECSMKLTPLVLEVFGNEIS
Assay: Inhibition of Gal4-tagged VDR LBD (unknown origin) by cell based luciferase reporter gene assay
pIC50: −log10 of the molar value.
measured.attribute: pIC50

INPUT: Dear colleague, I am looking for the recorded pIC50 of the following compound: Cc1c(C2(C(F)(F)F)CC2)nc(C2CC2)n1-c1c(Cl)ccc(N2CC3(CC(C(=O)O)C3)C2)c1Cl (single isomer, unassigned; atropisomer)
OUTPUT: < 5.00

----------
Molecular target: Nuclear receptor ROR-gamma (Homo sapiens)
Assay: Inverse agonist activity at RORgammat in human whole blood assessed as reduction in Con A/IL-23-stimulated IL-17 secretion after 72 hrs by ELISA
Format: tissue-based
measured.attribute: pIC50
Please treat pIC50 as minus the base-10 logarithm of the molar concentration.

INPUT: Requested read-out pIC50, target or system Nuclear receptor ROR-gamma (Homo sapiens), entry Cc1c(C2(C(F)(F)F)CC2)nc(C2CC2)n1-c1c(Cl)ccc(N2CC3(CC(C(=O)O)C3)C2)c1Cl (single isomer, unassigned; atropisomer)
OUTPUT: 5.87

----------
The reader will find reported logD values listed item by item below.
Assay: Lipophilicity of the compound, high-throughput logP using octanol-coated immobilized artificial membranes at pH 7.4
Type: physicochemical
Could you respond with only the numeric value?

Previously resolved entries follow.
INSERT INTO measurements (molecule, measured_attribute, assay_result) VALUES
  ('Cc1c(CC(C)C)nc(-c2ccc(Cl)o2)n1-c1c(Cl)ccc(N2CC(C(=O)O)C2)c1Cl (single isomer, unassigned; atropisomer)', 'logD', 3),
  ('N#Cc1cccc(C#N)c1-n1cc(C2CC2)nc1-c1cnco1', 'logD', 1.1),
  ('CCOC(=O)C(C)N(C(=O)c1cccs1)c1c(C)cccc1Cl (racemic)', 'logD', 3.6),
  ('Cc1c(C(F)(F)F)nc(-c2ccc(Cl)o2)n1-c1c(Cl)ccc(N2CC(C(=O)O)C2)c1Cl (single isomer, unassigned; atropisomer)', 'logD', 2.4),
  ('Cc1c(C(F)(F)F)nc(-c2ccc(Cl)o2)n1-c1c(Cl)cccc1Cl', 'logD', 6.3);

INPUT: Dear colleague, I am looking for the recorded logD of the following molecule: CC(C)Cc1cn(-c2c(C#N)cccc2C#N)c(-c2cnco2)n1
OUTPUT: 2

INPUT: Dear colleague, I am looking for the recorded logD of the following molecule: CC(C)OC(=O)[C@H](C)N(C(=O)c1ccco1)c1c(Cl)cccc1Cl
OUTPUT: 4.1

INPUT: Dear colleague, I am looking for the recorded logD of the following molecule: Cc1c(C(F)(F)F)nc(-c2ccc(Cl)o2)n1-c1c(Cl)ccc(N2CC(c3nnn[nH]3)C2)c1Cl
OUTPUT: 2.5

INPUT: Dear colleague, I am looking for the recorded logD of the following molecule: Cc1c(C(F)(F)F)nc(-c2ccc(Cl)o2)n1-c1c(Cl)ccc(N2CC(C(N)=O)C2)c1Cl (single isomer, unassigned; atropisomer)
OUTPUT: 4.9

----------
Biological target: Nuclear receptor ROR-gamma (Homo sapiens)
Sequence (P51449 whole entry): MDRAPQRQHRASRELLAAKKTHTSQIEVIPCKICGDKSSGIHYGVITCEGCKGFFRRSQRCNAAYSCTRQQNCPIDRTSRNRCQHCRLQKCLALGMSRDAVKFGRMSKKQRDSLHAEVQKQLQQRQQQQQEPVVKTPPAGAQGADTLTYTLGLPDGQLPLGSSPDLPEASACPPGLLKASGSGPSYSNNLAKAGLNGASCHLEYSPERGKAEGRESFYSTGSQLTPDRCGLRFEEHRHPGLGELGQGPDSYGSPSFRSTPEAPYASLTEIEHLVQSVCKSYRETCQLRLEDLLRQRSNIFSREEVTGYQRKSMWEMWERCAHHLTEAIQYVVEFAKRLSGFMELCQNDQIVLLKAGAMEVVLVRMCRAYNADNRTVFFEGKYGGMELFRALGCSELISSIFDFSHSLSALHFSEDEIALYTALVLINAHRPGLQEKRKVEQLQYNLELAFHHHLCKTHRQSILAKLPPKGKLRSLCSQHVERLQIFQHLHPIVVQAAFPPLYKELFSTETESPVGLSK
Test: Inhibition of Gal4-tagged RORgammat LBD (unknown origin) by cell based luciferase reporter gene assay
measured.attribute: pIC50
Please treat pIC50 as minus the base-10 logarithm of the molar concentration.

INPUT: Dear colleague, I am looking for the recorded pIC50 of the following compound: Cc1c(C2(C(F)(F)F)CC2)nc(C2CC2)n1-c1c(Cl)ccc(N2CC3(CC(C(=O)O)C3)C2)c1Cl (single isomer, unassigned; atropisomer)
OUTPUT: 6.82
